All values here come from ChEMBL document CHEMBL1137814.

system: brain; assay: Induction of microtubule assembly in bovine brain cells by turbidimetric assay; type: cell-based; conditions: Bos taurus
Activity calls are given as the source filed them. No cut-off for these calls is given here.
Measured Metric: Activity

1) CC[C@@H]1C=CC(=O)O[C@@H]1[C@H](C)C[C@@H](C)[C@@H](O)C[C@H](O)/C=C/C=C\c1cccc(O)c1Cl [BITUNGOLIDE D]: inactive
2) CC[C@@H]1C=CC(=O)O[C@@H]1[C@H](C)C[C@@H](C)[C@@H](O)C[C@H](O)/C=C/C=C/c1cccc(O)c1Cl [BITUNGOLIDE B]: inactive
3) CC[C@@H]1C=CC(=O)O[C@@H]1[C@H](C)CC[C@@H](O)C[C@H](O)/C=C/C=C/c1ccccc1 [BITUNGOLIDE F]: inactive
